Molecular target: T1, RBFOX1 RRM (Homo sapiens, UniProt Q9NWB1 109-208)
T1 sequence: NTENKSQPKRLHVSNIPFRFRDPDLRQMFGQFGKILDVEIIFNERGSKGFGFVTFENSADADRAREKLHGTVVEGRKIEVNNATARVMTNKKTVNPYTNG
Experiment: EMSA; HiTS-Eq, 1 nM pool, 10 min; buffer printed only for the single-RNA assays: 10 mM Tris pH 7.5, 150 mM NaCl, 3.4 mM EDTA, 0.001% NP-40, 30 C
Conditions: tags: His6 N-terminal (pET28a); label: 5' 32P
Over roughly 16,000 sequences, “ka relative to ugcaugu” has its median near 0.0091; the highest 2% begin near 0.032. For the sample, the highest values were picked, then their nearest neighbours and some sequences at random.
quantity-name: binding signal

binder	quantity-name	test-result
CGGCUAU (DNA:RNA) RNA: GGGAGACCGGAAUUCAGAUUGUCCCGGCUAUUUAAAUCCCGUCGUAGCCACCA DNA 1: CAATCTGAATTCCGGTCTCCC DNA 2: TGGTGGCTACGACGGGATT	binding signal	0.0107 KA relative to UGCAUGU
GAGAGCC (DNA:RNA) RNA: GGGAGACCGGAAUUCAGAUUGUCCGAGAGCCUUAAAUCCCGUCGUAGCCACCA DNA 1: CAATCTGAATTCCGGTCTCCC DNA 2: TGGTGGCTACGACGGGATT	binding signal	0.0145 KA relative to UGCAUGU
CCUAGCG (DNA:RNA) RNA: GGGAGACCGGAAUUCAGAUUGUCCCCUAGCGUUAAAUCCCGUCGUAGCCACCA DNA 1: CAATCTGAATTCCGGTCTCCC DNA 2: TGGTGGCTACGACGGGATT	binding signal	0.00608 KA relative to UGCAUGU
CCUAAGA (DNA:RNA) RNA: GGGAGACCGGAAUUCAGAUUGUCCCCUAAGAUUAAAUCCCGUCGUAGCCACCA DNA 1: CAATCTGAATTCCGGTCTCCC DNA 2: TGGTGGCTACGACGGGATT	binding signal	0.00773 KA relative to UGCAUGU
GACGAUG (DNA:RNA) RNA: GGGAGACCGGAAUUCAGAUUGUCCGACGAUGUUAAAUCCCGUCGUAGCCACCA DNA 1: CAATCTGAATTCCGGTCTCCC DNA 2: TGGTGGCTACGACGGGATT	binding signal	0.0266 KA relative to UGCAUGU
GGUGUCA (DNA:RNA) RNA: GGGAGACCGGAAUUCAGAUUGUCCGGUGUCAUUAAAUCCCGUCGUAGCCACCA DNA 1: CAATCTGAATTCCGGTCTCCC DNA 2: TGGTGGCTACGACGGGATT	binding signal	0.00539 KA relative to UGCAUGU
UUGCAAU (DNA:RNA) RNA: GGGAGACCGGAAUUCAGAUUGUCCUUGCAAUUUAAAUCCCGUCGUAGCCACCA DNA 1: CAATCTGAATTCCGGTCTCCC DNA 2: TGGTGGCTACGACGGGATT	binding signal	0.0162 KA relative to UGCAUGU
GGAUACC (DNA:RNA) RNA: GGGAGACCGGAAUUCAGAUUGUCCGGAUACCUUAAAUCCCGUCGUAGCCACCA DNA 1: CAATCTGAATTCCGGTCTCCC DNA 2: TGGTGGCTACGACGGGATT	binding signal	0.00541 KA relative to UGCAUGU
GUGUAAG (DNA:RNA) RNA: GGGAGACCGGAAUUCAGAUUGUCCGUGUAAGUUAAAUCCCGUCGUAGCCACCA DNA 1: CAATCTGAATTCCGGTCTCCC DNA 2: TGGTGGCTACGACGGGATT	binding signal	0.0113 KA relative to UGCAUGU
